Assay: CHI Log D procedure
Type: physicochemical
Conditions: pH 7.4, CHI Log D
The following molecules are shown together with reported chromatographic logD values.
Respond with the number and no other words.

CC(=O)N[C@@H](Cc1ccccc1)C(=O)N[C@@H](CC(=O)O)C(=O)N[C@@H](C)C(=O)N[C@]1(C)CCCCCCC=CCOC(=O)N2CC[C@@](C(=O)N[C@@H](Cc3ccccc3)C(=O)N[C@@H](Cc3c[nH]c4ccccc34)C(=O)N[C@@H](CCC(N)=O)C(N)=O)(C2)NC(=O)[C@H](C(C)C)NC(=O)[C@H](Cc2ccccc2)NC(=O)[C@H](C)NC(=O)[C@H](C)NC(=O)[C@H](Cc2ccc(C(=O)O)cc2)NC(=O)[C@H](CC(=O)O)NC1=O (single isomer, unassigned); 1.32

For CC(=O)N[C@@H](Cc1ccccc1)C(=O)N[C@@H](CC(=O)O)C(=O)N[C@@H](C)C(=O)N[C@]1(C)CCCCCCC=CCOC(=O)N2CC(C(=O)N[C@@H](Cc3ccccc3)C(=O)N[C@@H](Cc3c[nH]c4ccccc34)C(=O)N[C@@H](CCC(N)=O)C(N)=O)(C2)NC(=O)[C@H](C(C)C)NC(=O)[C@H](Cc2ccccc2)NC(=O)[C@H](C)NC(=O)[C@H](C)NC(=O)[C@H](CC(=O)O)NC(=O)[C@H](CC(=O)O)NC1=O (single isomer, unassigned) , what is its reported chromatographic logD? 1.26
